tested on: HOP-92; test: NCI tumour cell line growth inhibition, 48 h
Calls of active or inactive are those of the source. Cut-off read from the data, not from the text of the source: active = GI50 up to about 1.1 µM and inactive = higher.
Attribute measured: GI50

These recorded examples may help you get a feel for the data.
O=S(=O)(O)c1ccc2c(/N=N/c3ccccc3Cl)c(O)ccc2c1	> 100 µM (inactive)
N#CC1=C(N)OC2=C(CCCc3ccc([N+](=O)[O-])cc32)C1c1ccc(Cl)cc1 (stereo not given)	37 µM (inactive)
Cc1cc(Cl)ccc1Nc1sc(C(=O)c2cc3cc(Cl)ccc3o2)c(N)c1C#N	47 µM (inactive)
Cc1ccc(-c2cc(=O)c(=O)[nH][nH]2)cc1	> 100 µM (inactive)
O=C(CC1(O)C(=O)Nc2c(Cl)cc(Cl)cc21)c1ccc(Br)cc1Br (stereo not given)	2.4 µM (inactive)
COc1ccc2nc3cc([N+](=O)[O-])ccc3c(Nc3ccc(S(=O)(=O)Nc4ncccn4)cc3)c2c1	> 44.7 µM (inactive)
Cc1ccc(S(=O)(=O)NN=C2C(C)(C)CC2(C)C)cc1	> 100 µM (inactive)
N=C(N)N/N=C/c1c(-c2ccc(Cl)c([N+](=O)[O-])c2)nc2sc(Cl)cn12	1.67 µM (inactive)
CC(Oc1ccc(Cl)cc1Cl)C(=O)NN1C(=O)CC(=O)N(c2ccccc2)C1=S (stereo not given)	24.9 µM (inactive)

Could you now look at the following compound, please?
Task: Fill in: GI50 on HOP-92, entry `O=C(O/C(=C(/N=N/c1ccccc1)c1ccccc1)c1ccccc1)c1ccccc1`
Output: 82 µM (inactive)
